# TESTED TARGET: T1, biotinylated goat anti-human kappa light chain
# T1 construct: Positive control of the ELISA
# TEST: ELISA; positive control; further: test concentration or dose not given here
MEASUREMENT TYPE: optical density (OD)

binder="376_B07 (antibody, V domains shown, VH/VL only) VH: EVQLLESGGGLVQPGGSLRLSCAASGFTFDSYSMNWVRQAPGKGLEWVSGINYNSGYTSYADSVKGRFTISRDNSKNTLYLQMNSLRAEDTAVYYCARSATWHDTALDYWGQGTLVTVSS VL: DIQMTQSPSSLSASVGDRVTITCRASQSILSYLNWYQQKPGKAPKLVIYYVSNRASGVPSRFSGSGSGTDFTLTISSLQPEDFATYYCQQSYDNPLTFGGGTKVEIK" recorded_measurement=3.53
binder="365_E02 (antibody, V domains shown, VH/VL only) VH: EVQLLESGGGLVQPGGSLRLSCAASGFTFSSYSMNWVRQAPGKGLEWVANINYNGGYTSYADSVKGRFTISRDNSKNTLYLQMNSLRAEDTAVYYCAKSATWHDTHLDYWGQGTLVTVSS VL: DIQMTQSPSSLSASVGDRVTITCRASQSIISYLNWYQQKPGKAPKLLIYAATSRASGVPSRFSGSGSGTDFTLTISSLQPEDFATYYCQQSYENPLTFGGGTKVEIK" recorded_measurement=3.5
binder="376_H09 (antibody, V domains shown, VH/VL only) VH: EVQLLESGGGLVQPGGSLRLSCAASGFTFSDYSMNWVRQAPGKGLEWVANINYNGGYTGYADSVKGRFTISRDNSKNTLYLQMNSLRAEDTAVYYCARSANWHDTALDYWGQGTLVTVSS VL: DIQMTQSPSSLSASVGDRVTITCRASQSIITYLNWYQQKPGKAPKLVIYYVSNLPSGVPSRFSGSGSGTDFTLTISSLQPEDFATYYCQQSYDSPLTFGGGTKVEIK" recorded_measurement=3.46
binder="376_G09 (antibody, V domains shown, VH/VL only) VH: EVQLLESGGGLVQPGGSLRLSCAASGFTFDSYSMNWVRQAPGKGLEWVSGINYNSGYKGYADSVKGRFTISRDNSKNTLYLQMNSLRAEDTAVYYCARSANWHDTALDYWGQGTLVTVSS VL: DIQMTQSPSSLSASVGDRVTITCRASQSISYYLNWYQQKPGKAPKLLIYAVTSRASGVPSRFSGSGSGTDFTLTISSLQPEDFATYYCQQSYDNPLTFGGGTKVEIK" recorded_measurement=3.45
binder="367_C03 (antibody, V domains shown, VH/VL only) VH: EVQLLESGGGLVQPGGSLRLSCAASGFTFSSYSMNWVRQAPGKGLEWVANINYNGGYTGYADSVKGRFTISRDNSKNTLYLQMNSLRAEDTAVYYCARSATWHDTALDYWGQGTLVTVSS VL: DIQMTQSPSSLSASVGDRVTITCRASQSILSYVNWYQQKPGKAPKLVIYATTSRASGVPSRFSGSGSGTDFTLTISSLQPEDFATYYCQQSYENPLTFGGGTKVEIK" recorded_measurement=3.51
